- study_target: T1, recombinant extracellular portion of human CD4 (domains D1-4) (human, UniProt P01730 26-396, for BLI biotinylated with 3-fold molar excess of biotin-N-hydroxysuccinimide ester; not biotinylated in HDX-MS)
- T1 construct: extracellular domain; also called recombinant hCD4; extracellular domain of hCD4
- protocol_text: biolayer interferometry, biotinylated hCD4 immobilized on streptavidin biosensors
koff by entry:
Unit s⁻¹ implied. Number only.

Here are 3 binders together with their reported answers.
>  <binder>
CD4-Nb3 (VHH, Unlabeled, expressed in E. coli) VHH: HVQLVESGGGLVQPGGSLRLSCAVSGFALEYYAIGWFRQAPGKERERVACMSASGGVINYSESVKGRFTISRDNAKNTVYLQMNTLKPEDTAVYYCAAEKAYYGSSWAECYLMMDYWGKGTLVTVSS

>  <quantitative_readout>
0.00618

$$$$
>  <binder>
CD4-Nb1 (VHH, Unlabeled, expressed in E. coli; also called non-mutated CD4-Nb1) VHH: EVQLVESGGGLVQPGGSLRLSCAASGFTFSKLAMSWHREPPGKGREWLADIDSSGDTTDYLASVKGRFTISRDNAKNTLYLQMDSLKSEDTGVYYCASREDPPGYWGQGTQVTVSS

>  <quantitative_readout>
0.000613

$$$$
>  <binder>
CD4-Nb4 (VHH, Unlabeled, expressed in E. coli) VHH: EVQLQESGGALAQPGGSLRLSCAVSGFTFGTYGMGWLRQAPGKGREFVAAINWIHGGEIYADSVKGRFTISKDNAKNTLYLQMDSLKPEDTAVYYCAARSGTSLYTGVDEYQYWGQGTQVTVSS

>  <quantitative_readout>
0.016

$$$$

Now for another entry.
query: Can you look up the measured koff of CD4-Nb2 (VHH, Unlabeled, expressed in E. coli) VHH: EVQLVESGGGSVQPGGSLRLSCGASGFDVDYYAIGWFRQAPGKEREGVSCIASSDGSTYYADSVKGRFTISRDNAKNTVYLQMNSLKPEDTAVYYCAADATCPYYCSGSVCYLETGMDYWGEGTLVTVSS for me?
result: 0.000795
